src = the supplement of paper PMC10567573

B1: KCNA3 (parent)
chain: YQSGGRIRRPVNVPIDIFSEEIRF

- Variants of: B1
- Procedure Summary: protein stability index of a GFP-peptide fusion (GPS, HEK-293T) (PSI 1-6); higher = more stable;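 also: lentivirally expressed fusions sorted by FACS into six bins by GFP to DsRed ratio, PSI derived from sequencing read proportions per bin multiplied by bin number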
- Experimental Context: c terminus: a fixed tail appended
Provide the reported protein stability index of each item.

Example cases with answers are listed next.
{"columns": ["Mutant Code", "protein stability index"],
 "data": [
  ["G4V", 2.05],
  ["G4W", 2],
  ["P14H", 2.02],
  ["E21K", 1.84],
  ["E20P", 2.11]
]}

Please state protein stability index for every variant in the list that follows.
1. R9Y
2. I15C
3. I17G
4. I15P
5. F24C
6. V13F

[1.72, 2.13, 2.19, 2.03, 2.32, 1.86]
